Would you mind telling me the reported phosphorylation enrichment of each entry?
molecular target: EPHB1 (UniProt P54762); assay: phosphorylation enrichment, bacterial display (enrichment ratio); higher = better substrate or ligand; peptides without Tyr show the background
Sequence (P54762 whole entry, looked up): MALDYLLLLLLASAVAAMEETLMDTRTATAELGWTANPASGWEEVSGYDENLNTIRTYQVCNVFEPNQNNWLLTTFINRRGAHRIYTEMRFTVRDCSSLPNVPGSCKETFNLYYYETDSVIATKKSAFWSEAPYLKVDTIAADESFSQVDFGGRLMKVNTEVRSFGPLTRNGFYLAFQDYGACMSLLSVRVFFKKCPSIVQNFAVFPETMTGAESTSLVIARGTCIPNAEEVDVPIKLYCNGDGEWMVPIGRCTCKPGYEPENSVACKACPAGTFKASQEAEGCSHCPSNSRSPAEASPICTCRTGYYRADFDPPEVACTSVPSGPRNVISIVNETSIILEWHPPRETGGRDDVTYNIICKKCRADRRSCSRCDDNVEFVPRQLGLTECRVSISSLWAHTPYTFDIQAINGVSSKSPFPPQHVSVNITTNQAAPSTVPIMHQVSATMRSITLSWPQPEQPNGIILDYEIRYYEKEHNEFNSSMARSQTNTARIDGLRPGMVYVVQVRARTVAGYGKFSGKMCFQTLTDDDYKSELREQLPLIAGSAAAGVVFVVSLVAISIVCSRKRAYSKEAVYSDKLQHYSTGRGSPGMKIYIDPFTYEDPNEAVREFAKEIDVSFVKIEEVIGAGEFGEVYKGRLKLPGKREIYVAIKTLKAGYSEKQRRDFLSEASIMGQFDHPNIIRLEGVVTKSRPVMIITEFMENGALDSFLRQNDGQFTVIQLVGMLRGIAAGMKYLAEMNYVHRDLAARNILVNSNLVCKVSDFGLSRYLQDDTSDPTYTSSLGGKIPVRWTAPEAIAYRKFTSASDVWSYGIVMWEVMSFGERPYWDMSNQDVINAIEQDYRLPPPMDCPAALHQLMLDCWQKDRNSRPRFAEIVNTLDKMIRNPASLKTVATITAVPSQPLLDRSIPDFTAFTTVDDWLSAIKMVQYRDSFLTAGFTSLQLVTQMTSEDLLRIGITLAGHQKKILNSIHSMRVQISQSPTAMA

>>> test_result("KAEELYIGVTV [EFHC2_Y509]")
0.921
>>> test_result("NTGVYYDLYGG [PTPN11_Y63_D61V]")
6.16
>>> test_result("NIRKKYFRAIL [CHD7_Y1217_Q1214R_YF]")
0.466
>>> test_result("PTFEHYANSTQ [SLC12A3_Y70_YF]")
0.768
>>> test_result("MEVGQYFFVKC [CYBB_Y324_I325F]")
0.861
>>> test_result("QNTGDYYDLYG [PTPN11_Y62]")
16.7

// for each sequence in input: emit phosphorylation enrichment
1. QCTSAYPLQPE [NANS_Y188]
2. SVGGLYRDMGA [CBX8_Y321_G317V]
3. ATRDVYNPFET [SCAMP3_Y41_L38R]
4. FHLLPYTVRAM [PARS2_Y93_YF]

Found:
[0.719, 0.567, 0.454, 0.581]

###

target: SHP2-C SH2; test: SH2 binding enrichment of the phosphorylated peptide, bacterial display (enrichment ratio); higher = better substrate or ligand; peptides without Tyr show the background;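 also: peptide library displayed on the E. coli surface as eCPX fusions, selected cells deep-sequenced, score is each peptide's frequency after selection divided by its frequency in the input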
Metric Name: SH2 binding enrichment
One number for each entry.

Reference set (3 entries):
>>> test_result("FRDMDYRSFPH [RBM10_Y41_R46H_YF]")
0.787
>>> test_result("SDYSSYARTSI [TERT_Y949]")
0.637
>>> test_result("KDDEKYLDVIR [MTM1_Y260]")
0.64

// for each sequence in input: emit SH2 binding enrichment
1. GHLFACDWISI [BEST1_Y227_Y227C_YF]
2. GIVEDYRPTFY [ACVRL1_Y421_P424T]
3. AEFGLYAAMVR [VSX2_Y222_G223A_YF]

Found:
1: 0.806; 2: 0.657; 3: 0.581

// for each sequence in input: emit SH2 binding enrichment
1. YCRHNYGAVES [HLA-DRB1_Y112_V114A]
2. RPPFTYATLIH [FOXP3_Y342_R347H]
3. NVGGKYSFLKV [GRM3_Y478_YF]
4. TPIFPYLLPKS [PLD2_Y580_T577I_YF]
5. AGADGYGFLAP [FOXL2_Y186_YF]
6. YIPSNYVAEDR [FRK_Y104]

Found:
0.704
32.6
1.46
0.451
0.661
0.948

// for each sequence in input: emit SH2 binding enrichment
1. CHSDDYVHISI [TSC1_Y406_L411I]
2. AEMTGYVMTRW [MAPK13_Y182_V184M]
3. ANVKWYRNGRE
4. SRFQFYFQQKG [CHKB_Y381]
5. NVTRKYTRQIL [MAP3K2_Y463]
6. LKEIHYPPYTD [ALDH3B2_Y362]
7. FISVGYVDDTL [HLA-B_Y51_Q56L]
8. SFGESYDNSKS [MAN1B1_Y60_N59S]

Found:
1: 0.723; 2: 0.594; 3: 0.487; 4: 0.728; 5: 0.644; 6: 0.975; 7: 0.896; 8: 0.568

###

system: AncSZ; assay: phosphorylation enrichment, bacterial display (enrichment ratio); higher = better substrate or ligand; peptides without Tyr show the background
Quick rule for you: phosphorylation enrichment at 1 or higher means class 1, lower means class 0.

Reference set, count: 4
>>> classification("QSSALYEDRYL [ASS1_Y83]")
"class 1"
>>> classification("HLQDEYDFKCK [STAT1_Y170_D165H]")
"class 1"
>>> classification("MKGDFYCFLAE [YWHAG_Y131_R132C_YF]")
"class 1"
>>> classification("KELSSYKHLTL [SLIT2_Y776_N775S]")
"class 0"

Lookup: # bool: phosphorylation enrichment of LARDIYKNDFF [ROS1_Y2110_YF] >= 1
Found: class 1

Lookup: How about ETALHYIHDGI [GATD3A_Y250] ?
Found: class 0

Lookup: How about DDSNLYINVKL [MTHFD1_Y52] ?
Found: class 1

Lookup: How about NTGDYCDLYGG [PTPN11_Y63_Y63C] ?
Found: class 1

Lookup: How about HQKKPYCHTHN [NRAP_Y53_A56T] ?
Found: class 1

Lookup: How about RREWFYEVIIV [BACE1_Y260_YF] ?
Found: class 1

Lookup: How about DKANRYFSPNF [PTEN_Y336] ?
Found: class 0

Lookup: How about SKHRLYSDLQT [PTCHD1_Y84] ?
Found: class 0

Lookup: How about LGSVVYAHSKE [KCNQ2_Y226] ?
Found: class 0

Lookup: How about KKEGPYDVVVL [PARK7_Y67] ?
Found: class 0

Lookup: How about LAVGDYMRRQK [ATM_Y1915_V1913G] ?
Found: class 0

Lookup: How about IINENYDYLKG [NUP98_Y1664] ?
Found: class 0

Lookup: How about RDMMDYMLQGV [CYP21A2_Y259] ?
Found: class 1

Lookup: How about DFKIIYIVPMR [SNRNP200_Y540_A542V] ?
Found: class 1

Lookup: How about RTTIHYNFMCN [TP53_Y234_C229R_YF] ?
Found: class 1

Lookup: How about SHSMRYFDTAV [HLA-C_Y31] ?
Found: class 0

Lookup: How about QSMEPYTKQQL [STAT3_Y640_V637M] ?
Found: class 0

Lookup: How about GMAHNYRNSSQ [AASS_Y188] ?
Found: class 0
